Values were extracted from PubChem BioAssay AID1159580.

Test: chemical genetic growth profiling, strain panel (AID 1159580);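 note: tested at 20 µM; growth read once vehicle control cultures reached saturation at 30 °C; 1 = growth at the plate median or of vehicle wells; lower values mean less growth of the strain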
Details: S. cerevisiae deletion strains, growth OD, locus YOR231W, strain MKK1, stronger effect = lower value
Among all 5,500 compounds or so, about 2,000 (36%) were called active. Roughly 18% stayed inconclusive and do not appear here. The list shows a part of the results.
PARAMETER: normalized growth
Returns: the value as a bare number; no unit string appended.

Answered cases to consult:
{"COMPOUND": "CC(C)=CC1C(C(=O)OCc2cccc(Oc3ccccc3)c2)C1(C)C (stereo unspecified)", "normalized growth": 0.989}
{"COMPOUND": "Clc1ccc(C(c2ccccc2Cl)C(Cl)Cl)cc1 (stereo unspecified)", "normalized growth": 0.948}
{"COMPOUND": "Clc1ccc2c(c1)CCc1cccnc1C2=C1CCNCC1", "normalized growth": 0.992}

Query: Please look at this compound and report its normalized growth: Nc1ccccc1C(=O)Nc1cc(C(F)(F)F)cc(C(F)(F)F)c1
Reply: 0.87

Query: Please look at this compound and report its normalized growth: NC(N)=NCCN1CCCCCCC1
Reply: 0.993

Query: Please look at this compound and report its normalized growth: O=C(Nc1cc(C(F)(F)F)cc(C(F)(F)F)c1)C(Cl)(Cl)Cl
Reply: 0.896

Query: Please look at this compound and report its normalized growth: C=C1C(=O)[C@]23[C@H](O)[C@H]1CC[C@H]2[C@@]12CO[C@]3(O)[C@H](O)[C@@H]1C(C)(C)CC[C@@H]2O
Reply: 1.02

Query: Please look at this compound and report its normalized growth: CCOC(=O)c1ccc(Oc2sccc2[N+](=O)[O-])cc1
Reply: 0.869

Query: Please look at this compound and report its normalized growth: O=C(Oc1ccc2ccccc2c1C1SCCS1)c1ccc([N+](=O)[O-])o1
Reply: 0.878

Query: Please look at this compound and report its normalized growth: N#Cc1cccc(CSc2nc3ccc(C(F)(F)F)cc3[nH]2)c1
Reply: 0.871

Query: Please look at this compound and report its normalized growth: CC(O)(P(=O)(O)O)P(=O)(O)O
Reply: 0.972
